molecular target: plasma purified human complement protein C3 (human) (UniProt P01024); assay: cell-based or functional assay
Sequence (P01024 23-667, chain 1 of 2): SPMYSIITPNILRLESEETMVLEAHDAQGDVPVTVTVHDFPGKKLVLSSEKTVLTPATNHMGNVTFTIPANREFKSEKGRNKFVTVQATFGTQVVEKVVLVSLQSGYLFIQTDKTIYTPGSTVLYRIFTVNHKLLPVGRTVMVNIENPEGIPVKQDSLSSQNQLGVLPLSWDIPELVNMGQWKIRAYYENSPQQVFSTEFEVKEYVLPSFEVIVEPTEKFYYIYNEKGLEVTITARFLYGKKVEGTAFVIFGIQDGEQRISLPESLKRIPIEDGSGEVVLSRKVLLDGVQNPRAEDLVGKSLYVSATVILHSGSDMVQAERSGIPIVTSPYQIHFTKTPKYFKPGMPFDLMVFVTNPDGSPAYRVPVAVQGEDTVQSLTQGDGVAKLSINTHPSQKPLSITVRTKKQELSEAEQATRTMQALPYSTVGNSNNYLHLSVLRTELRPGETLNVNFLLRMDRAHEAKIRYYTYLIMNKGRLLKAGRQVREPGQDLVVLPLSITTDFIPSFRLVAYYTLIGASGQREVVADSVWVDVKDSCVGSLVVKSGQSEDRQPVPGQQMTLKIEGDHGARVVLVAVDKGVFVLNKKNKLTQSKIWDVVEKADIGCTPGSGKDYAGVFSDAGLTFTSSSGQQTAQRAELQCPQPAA
Sequence (P01024 672-1663, chain 2 of 2): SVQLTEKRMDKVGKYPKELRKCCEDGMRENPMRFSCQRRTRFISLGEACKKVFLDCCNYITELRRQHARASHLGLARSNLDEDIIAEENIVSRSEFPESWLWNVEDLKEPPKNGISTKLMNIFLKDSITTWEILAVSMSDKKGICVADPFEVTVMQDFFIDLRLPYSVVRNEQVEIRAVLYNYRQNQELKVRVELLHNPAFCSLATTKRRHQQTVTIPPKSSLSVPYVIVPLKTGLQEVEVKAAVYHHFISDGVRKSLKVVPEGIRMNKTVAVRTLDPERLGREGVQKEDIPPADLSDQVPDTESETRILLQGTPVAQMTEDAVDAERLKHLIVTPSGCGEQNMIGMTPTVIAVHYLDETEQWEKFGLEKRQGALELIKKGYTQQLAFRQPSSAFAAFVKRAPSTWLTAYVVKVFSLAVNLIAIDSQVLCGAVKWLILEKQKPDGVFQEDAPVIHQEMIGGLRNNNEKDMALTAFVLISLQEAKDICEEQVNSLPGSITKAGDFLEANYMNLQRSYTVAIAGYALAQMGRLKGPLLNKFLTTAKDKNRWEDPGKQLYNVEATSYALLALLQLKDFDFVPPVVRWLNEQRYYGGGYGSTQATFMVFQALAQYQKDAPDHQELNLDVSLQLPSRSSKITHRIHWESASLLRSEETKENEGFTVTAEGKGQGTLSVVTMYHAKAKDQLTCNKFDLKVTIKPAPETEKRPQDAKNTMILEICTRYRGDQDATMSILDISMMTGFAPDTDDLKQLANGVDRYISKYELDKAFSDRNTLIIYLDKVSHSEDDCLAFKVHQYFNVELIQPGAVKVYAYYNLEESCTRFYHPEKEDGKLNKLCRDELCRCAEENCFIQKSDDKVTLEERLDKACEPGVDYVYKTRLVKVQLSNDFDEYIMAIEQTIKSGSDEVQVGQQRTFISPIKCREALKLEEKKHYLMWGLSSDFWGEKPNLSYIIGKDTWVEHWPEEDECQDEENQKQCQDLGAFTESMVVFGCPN
QUANTITY MEASURED: EC50 hC3 cleavage (nM)
Give bare numbers, in nM.

BINDER	EC50 hC3 cleavage [nM]
MTSP-1 protease domain Q38H/I41S/D60bQ/F60eQ/F97D/ins97aV/T98P/F99L/C122S/H143Q/G151Q/Q175L/Q192G (enzyme) VVGGTDADEGEWPWQVSLHALGHGHSCGASLISPNWLVSAAHCYIDQRGQRYSDPTQWTAFLGLHDQSQRSAPGVQERRLKRIISHPFFNDDVPLDYDIALLELEKPAEYSSMVRPISLPDASHVFPAGKAIWVTGWGQTQYGGTQALILQKGEIRVINQTTCENLLPQLITPRMMCVGFLSGGVDSCGGDSGGPLSSVEADGRIFQAGVVSWGDGCAQRNKPGVYTRLPLFRDWIKENTGV	8.5

Hi there! I need EC50 hC3 cleavage for each item below, if you can.
1. MTSP-1 protease domain Q38Y/I41A/D60bT/F60eG/Y60gW/D96V/F97N/T98G/F99L/C122S/G151H/Q175L/Q192D (enzyme) VVGGTDADEGEWPWQVSLHALGYGHACGASLISPNWLVSAAHCYIDTRGGRWSDPTQWTAFLGLHDQSQRSAPGVQERRLKRIISHPFFNVNGLDYDIALLELEKPAEYSSMVRPISLPDASHVFPAGKAIWVTGWGHTQYGGTHALILQKGEIRVINQTTCENLLPQLITPRMMCVGFLSGGVDSCDGDSGGPLSSVEADGRIFQAGVVSWGDGCAQRNKPGVYTRLPLFRDWIKENTGV
2. MTSP-1 protease domain I41G/F99L/C122S/Q175I/Q192T/D217T (enzyme) VVGGTDADEGEWPWQVSLHALGQGHGCGASLISPNWLVSAAHCYIDDRGFRYSDPTQWTAFLGLHDQSQRSAPGVQERRLKRIISHPFFNDFTLDYDIALLELEKPAEYSSMVRPISLPDASHVFPAGKAIWVTGWGHTQYGGTGALILQKGEIRVINQTTCENLLPQIITPRMMCVGFLSGGVDSCTGDSGGPLSSVEADGRIFQAGVVSWGTGCAQRNKPGVYTRLPLFRDWIKENTGV

Result ::
1. 5.06
2. 81.8
